Biological target: CXCR4 receptors (Homo sapiens, UniProt P61073)
Construct: expressing endogenous CXCR4 receptors; endogenous in cells
Sequence (P61073 whole entry): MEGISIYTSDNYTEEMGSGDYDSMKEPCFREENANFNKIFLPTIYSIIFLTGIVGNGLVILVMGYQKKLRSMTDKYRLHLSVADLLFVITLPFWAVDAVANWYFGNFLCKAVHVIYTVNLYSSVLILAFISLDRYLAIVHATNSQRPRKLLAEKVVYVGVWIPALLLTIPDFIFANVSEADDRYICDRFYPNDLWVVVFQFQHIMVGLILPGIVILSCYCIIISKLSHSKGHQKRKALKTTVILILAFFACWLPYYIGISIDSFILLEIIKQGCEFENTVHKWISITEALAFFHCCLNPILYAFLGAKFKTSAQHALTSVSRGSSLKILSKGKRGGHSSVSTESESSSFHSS
Assay: CXCR4-CEM calcium flux assay, antagonist mode (inhibition of SDF-1α-induced calcium flux)
Conditions: inhibition of calcium flux induced by 4 nM SDF-1α in CCRF-CEM cells
Experimental: Exemplary compounds of the invention were tested for their ability to induce or inhibit calcium flux in CCRF-CEM cells. […] CXCR4-CEM Calcium Flux Assays. […] The cells were then equilibrated to room temperature for 30 minutes before assay. […] Activity of the compounds to induce calcium flux was monitored by FDSS in the “agonist mode” for 90 sec. […] Inhibition of SDF-1α-induced calcium flux was monitored by FDSS6000 for 90 sec. […] After correcting for background, EC50 values were determined. […]
Listed below: IC50 values for each entry.
measured.endpoint: IC50 (nM)

INSERT INTO assay_data (molecule, measurement_unit, result_operator, observed_result) VALUES
  ('CC(C)CN1CCN(c2nccc3nc(CN(C)[C@H]4CCCc5cccnc54)cn23)CC1', 'nM', '=', 42),
  ('CN(Cc1cn2c(N3CCN(C(=O)OC(C)(C)C)CC3)nccc2n1)[C@H]1CCCc2cccnc21', 'nM', '>', 30000),
  ('CN(Cc1cn2c(N3CCNCC3)nc(Cl)cc2n1)[C@H]1CCCc2cccnc21', 'nM', '=', 330),
  ('CN(Cc1cn2c(N3CCN(C(=O)Nc4cccc(Cl)c4)CC3)nccc2n1)[C@H]1CCCc2cccnc21', 'nM', '=', 50),
  ('CN1CCCC2CN(c3nccc4nc(CN(C)[C@H]5CCCc6cccnc65)cn34)CC21 (stereo partly shown) [Example 103]', 'nM', '=', 260),
  ('CN(Cc1cn2c(N3CCNC(c4ccccc4)C3)nccc2n1)[C@H]1CCCc2cccnc21 (single isomer, unassigned) [Example 78]', 'nM', '=', 11),
  ('CN(Cc1cn2c(N3CC4CCNC4C3)nccc2n1)[C@H]1CCCc2cccnc21 (stereo partly shown) [Example 94]', 'nM', '=', 65),
  ('NCCCCN(Cc1cn2c(O)nccc2n1)[C@H]1CCCc2cccnc21', 'nM', '=', 29),
  ('COC(=O)N1CCN(c2nccc3nc(CN(C)[C@H]4CCCc5cccnc54)cn23)CC1', 'nM', '=', 5670),
  ('CC(CN1CCN(c2nccc3nc(CN(C)[C@H]4CCCc5cccnc54)cn23)CC1)c1ccccc1 (stereo partly shown)', 'nM', '=', 7.3),
  ('CN(Cc1cn2c(N3CCN(S(=O)(=O)c4cccnc4)CC3)nccc2n1)[C@H]1CCCc2cccnc21', 'nM', '=', 7500),
  ('CN(Cc1cn2c(N3CCN(CC(C)(C)C)CC3)nccc2n1)[C@H]1CCCc2cccnc21', 'nM', '=', 1000),
  ('CCNC(=O)N1CCN(c2nccc3nc(CN(C)[C@H]4CCCc5cccnc54)cn23)CC1', 'nM', '=', 1230),
  ('CN1CCN(c2nccc3nc(CN(C)[C@H]4CCCc5cccnc54)cn23)CC1', 'nM', '=', 2.5),
  ('CN(Cc1cn2c(N3CCN(Cc4ccc(O)cc4)CC3)nccc2n1)[C@H]1CCCc2cccnc21', 'nM', '=', 11),
  ('CN(Cc1cn2c(N3CC4CNC4C3)nccc2n1)[C@H]1CCCc2cccnc21 (stereo partly shown) [Example 89]', 'nM', '=', 280);
